Cited source for all entries: paper PMC6572618

Tested on: chloroquine sensitive strain of P. falciparum (3D7)
Experiment: In vitro antiplasmodial assay (parasite lactate dehydrogenase, pLDH)
Format: cell-based
Conditions: 20 µM
Description: An antimalarial evaluation was performed against the chloroquine sensitive strain of P. falciparum (3D7) using the parasite lactate dehydrogenase (pLDH) assay as previously reported. […] The parasite lactate dehydrogenase activity in the wells was determined using the colorimetric assay method of Makler et al.. The absorbance readings were converted to % parasite viability relative to the wells containing untreated parasites. […]
Can you tell me % Viability at 20 µM (SD) 3D7 for the items I'm about to list?

# % Viability at 20 µM (SD) 3D7 (molecule: O=C1/C(=C/c2cccc(Br)c2)CCc2ccc(O)cc21 ) is 99 (8) %

# % Viability at 20 µM (SD) 3D7 (molecule: O=C1/C(=C/c2ccc(F)cc2)CCc2ccccc21 ) is 107 (5) %

# % Viability at 20 µM (SD) 3D7 (molecule: O=C1/C(=C/c2cccc(Cl)c2)CCc2ccc(O)cc21 ) is −3 (6) %

# % Viability at 20 µM (SD) 3D7 (molecule: COc1ccc2c(c1)C(=O)/C(=C/c1ccccn1)CC2 ) is 7 (8) %

# % Viability at 20 µM (SD) 3D7 (molecule: COc1ccc2c(c1)C(=O)/C(=C/c1ccco1)CC2 ) is 100 (3) %

# % Viability at 20 µM (SD) 3D7 (molecule: Nc1ccc2c(c1)CC/C(=C\c1ccccc1)C2=O ) is 111 (1) %

# % Viability at 20 µM (SD) 3D7 (molecule: O=C1/C(=C/c2cccc(F)c2)CCc2ccc(O)cc21 ) is 13 (1) %

# % Viability at 20 µM (SD) 3D7 (molecule: COc1ccc2c(c1)C(=O)/C(=C/c1cccs1)CC2 ) is 107 (6) %

# % Viability at 20 µM (SD) 3D7 (molecule: O=c1c(Cc2ccc(Cl)cc2)csc2ccccc12 ) is 107 (5) %

# % Viability at 20 µM (SD) 3D7 (molecule: N#Cc1cccc(/C=C2\CCc3ccc(N)cc3C2=O)c1 ) is 110 (1) %

# % Viability at 20 µM (SD) 3D7 (molecule: O=C1/C(=C/c2ccc(O)cc2)CCc2ccc(O)cc21 ) is 104 (12) %

# % Viability at 20 µM (SD) 3D7 (molecule: O=C1/C(=C/c2cccnc2)CCc2ccccc21 ) is 29 (12) %

# % Viability at 20 µM (SD) 3D7 (molecule: O=C1/C(=C/c2cccc(Cl)c2)CCc2ccccc21 ) is 100 (9) %

# % Viability at 20 µM (SD) 3D7 (molecule: COc1ccc2c(c1)C(=O)/C(=C/c1ccc[nH]1)CC2 ) is 115 (5) %

# % Viability at 20 µM (SD) 3D7 (molecule: O=c1c(Cc2ccc(Cl)cc2)coc2ccccc12 ) is 90 (6) %

# % Viability at 20 µM (SD) 3D7 (molecule: CN(C)c1ccc(/C=C2\CCc3ccc(O)cc3C2=O)cc1 ) is 142 (9) %

# % Viability at 20 µM (SD) 3D7 (molecule: O=C1/C(=C/c2ccccc2)CCc2ccc(O)cc21 ) is 101 (4) %

# % Viability at 20 µM (SD) 3D7 (molecule: O=C1/C(=C/c2ccc(Cl)cc2)Cc2ccccc21 ) is 93 (3) %

# % Viability at 20 µM (SD) 3D7 (molecule: O=C1/C(=C/c2ccc(Cl)cc2)CSc2ccccc21 ) is 11 (0.9) %

# % Viability at 20 µM (SD) 3D7 (molecule: O=C1/C(=C/c2ccc(Cl)cc2)CCCc2ccccc21 ) is 113 (0.6) %

###

Can you tell me % Viability at 20 µM (SD) 3D7 for the items I'm about to list?
System: chloroquine sensitive strain of P. falciparum (3D7)
Assay: In vitro antiplasmodial assay (parasite lactate dehydrogenase, pLDH)
Type: cell-based
Conditions: 20 µM

# % Viability at 20 µM (SD) 3D7 (compound: COc1ccc2c(c1)C(=O)/C(=C/c1cccnc1)CC2 [Compound 31] ) is 85 (12) %

# % Viability at 20 µM (SD) 3D7 (compound: COc1ccc2c(c1)C(=O)/C(=C/c1cccnc1Cl)CC2 [Compound 34] ) is 113 (6) %

# % Viability at 20 µM (SD) 3D7 (compound: O=C1/C(=C/c2ccc(Cl)c(Cl)c2)CCc2ccc(O)cc21 [Compound 22] ) is 81 (1) %

# % Viability at 20 µM (SD) 3D7 (compound: COc1ccc(/C=C2\CCc3ccc(O)cc3C2=O)cc1 [Compound 23] ) is 88 (10) %

# % Viability at 20 µM (SD) 3D7 (compound: O=C1/C(=C/c2ccc(Cl)cc2)CCc2ccccc21 [Compound 24] ) is 100 (8) %

###

Test: In vitro cytotoxicity assay (resazurin)
Format: cell-based
Conditions: human; 20 µM compound, 24 h, % cell viability relative to untreated control; read-out: % Viability at 20 µM (SD) HeLa Cell
outcome measure: viability at 24 h, 20 µM (%)
State the answer as a number, implicitly in %.

# viability at 24 h, 20 µM (molecule: O=C1/C(=C/c2ccc(Cl)cc2)COc2ccccc21 ) is 75

###

Tested on: 427 Trypanosoma brucei brucei trypomastigotes
Experiment: In vitro anti-trypanosomal assay (resazurin)
Format: cell-based
Settings: 20 µM compound, 48 h, % parasite viability relative to untreated control; 20 µM
Procedure: The activity of the compounds against 427 Trypanosoma brucei brucei trypomastigotes was determined as previously described. […] After 48 h, 20 µL of resazurin reagent (0.135 mg/mL resazurin in phosphate-buffered saline) was added to each well and the fluorescence (Ex560/Em590) read after 2–4 h in a Spectramax M3 plate reader (Molecular Devices, San Jose, CA, USA). […]
Can you tell me % Viability at 20 µM (SD) T.b. brucei for the items I'm about to list?

# % Viability at 20 µM (SD) T.b. brucei (compound: O=C1/C(=C/c2ccc(Cl)cc2)Cc2ccccc21 ) is 99 (0.1) %

# % Viability at 20 µM (SD) T.b. brucei (compound: O=c1c(Cc2ccc(Cl)cc2)coc2ccccc12 ) is 94 (7) %

# % Viability at 20 µM (SD) T.b. brucei (compound: O=C1/C(=C/c2ccc(Cl)cc2)CCCc2ccccc21 ) is 0.3 (0.3) %

# % Viability at 20 µM (SD) T.b. brucei (compound: O=C1/C(=C/c2ccc(Cl)cc2)COc2ccccc21 ) is 0.4 (0.2) %

# % Viability at 20 µM (SD) T.b. brucei (compound: O=C1/C(=C/c2ccccc2)CCc2cc(O)ccc21 ) is 0.6 (0.2) %

# % Viability at 20 µM (SD) T.b. brucei (compound: O=c1c(Cc2ccc(Cl)cc2)csc2ccccc12 ) is 103 (0.3) %

# % Viability at 20 µM (SD) T.b. brucei (compound: O=C1/C(=C/c2ccc(Cl)cc2)CSc2ccccc21 ) is 0.3 (0.3) %

###

Can you tell me viability at 20 µM for the items I'm about to list?
Test system: chloroquine sensitive strain of P. falciparum (3D7)
Assay: In vitro antiplasmodial assay (parasite lactate dehydrogenase, pLDH)
Type: cell-based
Details: Plasmodium falciparum, 3D7, 48 h, 20 µM compound, 48 h, P. falciparum 3D7, % parasite viability relative to untreated parasites; read-out: % Viability at 20 µM (SD) 3D7
Protocol: An antimalarial evaluation was performed against the chloroquine sensitive strain of P. falciparum (3D7) using the parasite lactate dehydrogenase (pLDH) assay as previously reported. […] The parasite lactate dehydrogenase activity in the wells was determined using the colorimetric assay method of Makler et al.. The absorbance readings were converted to % parasite viability relative to the wells containing untreated parasites. […]
State the answer as a number, implicitly in %.

# viability at 20 µM (molecule: COc1ccc2c(c1)C(=O)/C(=C/C1CCCCC1)CC2 ) is 119

# viability at 20 µM (molecule: O=C1/C(=C/c2cccc(F)c2)CCc2ccccc21 ) is 131

# viability at 20 µM (molecule: Cc1ccc(/C=C2\CCc3ccc(O)cc3C2=O)cc1 ) is 116

# viability at 20 µM (molecule: COc1ccc(/C=C2\CCc3ccccc3C2=O)cc1 ) is 100

# viability at 20 µM (molecule: COc1ccc2c(c1)C(=O)/C(=C/c1ccsc1)CC2 ) is 86

# viability at 20 µM (molecule: COc1ccc2c(c1)C(=O)/C(=C/C1CCCC1)CC2 ) is 81

# viability at 20 µM (molecule: O=C1/C(=C/c2ccccc2)CCc2cc(O)ccc21 ) is 89

# viability at 20 µM (molecule: COc1ccc2c(c1)C(=O)/C(=C/c1ccccc1)CC2 ) is 113

# viability at 20 µM (molecule: O=C1/C(=C/c2ccc(Br)cc2)CCc2ccc(O)cc21 ) is 43

# viability at 20 µM (molecule: N#Cc1cccc(/C=C2\CCc3ccccc3C2=O)c1 ) is 113
